- Measurement description: Back of the eye drug exposure (PK) after topical instillation of compound MPP
- Type: in vivo
- Reported conditions: rabbit, retina, topical or ocular, 50 μL of 0.5% MPP formulation; MPP 0.5%, 50 μL topical BID 5 days, Dutch-belted rabbits, 8 mm punch; read-out: Cmax Retina
Experimental readout: Cmax (nM)
// note: answer is a bare numeric in nM

Below, 2 compounds whose answers are already recorded.
| Compound | Cmax / nM |
| --- | --- |
| COc1cc2c(Oc3ccc(NC(=O)Nc4cc(C)on4)c(Cl)c3)ncnc2cc1OCCCN1CCC2(CC1)COC2 [Compound 9] | 110 |
| COc1cc2c(Oc3ccc(NC(=O)Nc4cc(C)ccc4F)c(Cl)c3)ncnc2cc1OCCCN1CCC2(CC1)COC2 [Compound 12] | 39 |

Noted for COc1cc2c(Oc3ccc(NC(=O)Nc4cc(C)ccc4F)c(Cl)c3)ccnc2cc1OCCCN1CCC2(CC1)COC2 [Compound 25] : its Cmax reads 33
